Reported MIC values are given for each entry in this list.
test system: Pseudomonas aeruginosa; test: Antibacterial activity against imipenem-resistant Pseudomonas aeruginosa SR-6554 by standard serial agar dilution method; format: functional
Enter your answer as a number in µg/mL; do not include the unit.

Examples with their reported MIC follow.
Smiles representation | MIC (µg/mL)
C[C@H](N)CCn1c(N)nc2c1ccc[n+]2CC1=C(C(=O)[O-])N2C(=O)[C@@H](NC(=O)/C(=N\O[C@@H](C)C(=O)O)c3nc(N)sc3Cl)[C@H]2SC1 | 8
C[C@H](O/N=C(\C(=O)N[C@@H]1C(=O)N2C(C(=O)[O-])=C(C[n+]3cccc4c3ccn4CC(=O)O)CS[C@H]12)c1nc(N)sc1Cl)C(=O)O | 32
C[C@H](O/N=C(\C(=O)N[C@@H]1C(=O)N2C(C(=O)[O-])=C(C[n+]3cccc4c3ccn4CCNC(N)=O)CS[C@H]12)c1nc(N)sc1Cl)C(=O)O | 16

In plain terms, "CC(C)(O/N=C(\C(=O)N[C@@H]1C(=O)N2C(C(=O)[O-])=C(C[n+]3ccccc3)CS[C@H]12)c1csc(N)n1)C(=O)O" has a documented MIC of 32

In plain terms, "C[C@H](O/N=C(\C(=O)N[C@@H]1C(=O)N2C(C(=O)[O-])=C(C[n+]3cccc4c3ccn4CC(N)=O)CS[C@H]12)c1nc(N)sc1Cl)C(=O)O" has a documented MIC of 16

In plain terms, "COC(=O)NCCn1ccc2c1ccc[n+]2CC1=C(C(=O)[O-])N2C(=O)[C@@H](NC(=O)/C(=N\O[C@@H](C)C(=O)O)c3nc(N)sc3Cl)[C@H]2SC1" has a documented MIC of 16

In plain terms, "CC(=O)NCCn1ccc2c1ccc[n+]2CC1=C(C(=O)[O-])N2C(=O)[C@@H](NC(=O)/C(=N\O[C@@H](C)C(=O)O)c3nc(N)sc3Cl)[C@H]2SC1" has a documented MIC of 16

In plain terms, "C[C@H](O/N=C(\C(=O)N[C@@H]1C(=O)N2C(C(=O)[O-])=C(C[n+]3cccc4c3nc(N)n4C3CCNCC3)CS[C@H]12)c1nc(N)sc1Cl)C(=O)O" has a documented MIC of 4

In plain terms, "CNCCCn1c(N)nc2c1ccc[n+]2CC1=C(C(=O)[O-])N2C(=O)[C@@H](NC(=O)/C(=N\O[C@@H](C)C(=O)O)c3nc(N)sc3Cl)[C@H]2SC1" has a documented MIC of 8

In plain terms, "CNCCn1ncc2c1ccc[n+]2CC1=C(C(=O)[O-])N2C(=O)[C@@H](NC(=O)/C(=N\O[C@@H](C)C(=O)O)c3nc(N)sc3Cl)[C@H]2SC1" has a documented MIC of 16

In plain terms, "C[C@H](O/N=C(\C(=O)N[C@@H]1C(=O)N2C(C(=O)[O-])=C(C[n+]3cccc4c3nc(N)n4[C@H]3CCNC3)CS[C@H]12)c1nc(N)sc1Cl)C(=O)O" has a documented MIC of 8

In plain terms, "C[C@H](O/N=C(\C(=O)N[C@@H]1C(=O)N2C(C(=O)[O-])=C(C[n+]3cccc4c3ccn4C)CS[C@H]12)c1nc(N)sc1Cl)C(=O)O" has a documented MIC of 16

In plain terms, "CNCCCn1c(N)cc2c1ccc[n+]2CC1=C(C(=O)[O-])N2C(=O)[C@@H](NC(=O)/C(=N\O[C@@H](C)C(=O)O)c3nc(N)sc3Cl)[C@H]2SC1" has a documented MIC of 16

In plain terms, "CO/N=C(\C(=O)N[C@@H]1C(=O)N2C(C(=O)[O-])=C(C[N+]3(C)CCCC3)CS[C@H]12)c1csc(N)n1" has a documented MIC of 64

In plain terms, "CNCCCn1ccc2c1ccc[n+]2CC1=C(C(=O)[O-])N2C(=O)[C@@H](NC(=O)/C(=N\O[C@@H](C)C(=O)O)c3nc(N)sc3Cl)[C@H]2SC1" has a documented MIC of 8

====

test system: Staphylococcus aureus; experiment: Antibacterial activity against Staphylococcus aureus Smith by standard serial agar dilution method; type: functional
Reported log10 of MIC values are given for each entry in this list.
In our notation, the value equals log10 of MIC in µg/mL.

Examples with their reported log10 of MIC follow.
Smiles representation | log10 of MIC
CNCCNc1cc[n+](CC2=C(C(=O)[O-])N3C(=O)[C@@H](NC(=O)/C(=N\O[C@@H](C)C(=O)O)c4nc(N)sc4Cl)[C@H]3SC2)cc1 | 0.60
C[C@H](O/N=C(\C(=O)N[C@@H]1C(=O)N2C(C(=O)[O-])=C(C[n+]3cccc4[nH]ccc43)CS[C@H]12)c1nc(N)sc1Cl)C(=O)O | 0.00

In plain terms, "CNCCCc1cc[n+](CC2=C(C(=O)[O-])N3C(=O)[C@@H](NC(=O)/C(=N\O[C@@H](C)C(=O)O)c4nc(N)sc4Cl)[C@H]3SC2)cc1" has a documented log10 of MIC of 0.90

In plain terms, "CNCCn1c(N)nc2c[n+](CC3=C(C(=O)[O-])N4C(=O)[C@@H](NC(=O)/C(=N\O[C@@H](C)C(=O)O)c5nc(N)sc5Cl)[C@H]4SC3)ccc21" has a documented log10 of MIC of 1.20

In plain terms, "C[C@H](O/N=C(\C(=O)N[C@@H]1C(=O)N2C(C(=O)[O-])=C(C[n+]3cccc4c3nc(N)n4C3CCNCC3)CS[C@H]12)c1nc(N)sc1Cl)C(=O)O" has a documented log10 of MIC of 0.30

In plain terms, "C[C@H](O/N=C(\C(=O)N[C@@H]1C(=O)N2C(C(=O)[O-])=C(C[n+]3ccc(NC4CNC4)cc3)CS[C@H]12)c1nc(N)sc1Cl)C(=O)O" has a documented log10 of MIC of 0.30

In plain terms, "C[C@H](O/N=C(\C(=O)N[C@@H]1C(=O)N2C(C(=O)[O-])=C(C[n+]3cccc4c3ccn4CCNC(N)=O)CS[C@H]12)c1nc(N)sc1Cl)C(=O)O" has a documented log10 of MIC of 0.60

====

tested on: Enterobacter cloacae; test: Antibacterial activity against AmpC producing Enterobacter cloacae SR-4321 by standard serial agar dilution method; type: functional
Measure: MIC (µg/mL)
Enter your answer as a number in µg/mL; do not include the unit.

Smiles representation | Measure | Units label | Quantitative readout
CNCCCn1c(N)nc2c1ccc[n+]2CC1=C(C(=O)[O-])N2C(=O)[C@@H](NC(=O)/C(=N\O[C@@H](C)C(=O)O)c3nc(N)sc3Cl)[C@H]2SC1 | MIC | µg/mL | 2
C[C@H](O/N=C(\C(=O)N[C@@H]1C(=O)N2C(C(=O)[O-])=C(C[n+]3cccc4c3nc(N)n4C3CCNCC3)CS[C@H]12)c1nc(N)sc1Cl)C(=O)O | MIC | µg/mL | 2
CNCCn1nnc2c1ccc[n+]2CC1=C(C(=O)[O-])N2C(=O)[C@@H](NC(=O)/C(=N\O[C@@H](C)C(=O)O)c3nc(N)sc3Cl)[C@H]2SC1 | MIC | µg/mL | 8
CNCCCn1ccc2c1ccc[n+]2CC1=C(C(=O)[O-])N2C(=O)[C@@H](NC(=O)/C(=N\O[C@@H](C)C(=O)O)c3nc(N)sc3Cl)[C@H]2SC1 | MIC | µg/mL | 2

# evaluate next
In plain terms, "CNCCn1ccc2c[n+](CC3=C(C(=O)[O-])N4C(=O)[C@@H](NC(=O)/C(=N\O[C@@H](C)C(=O)O)c5nc(N)sc5Cl)[C@H]4SC3)ccc21" has a documented MIC of 8

====

Reported MIC values are given for each entry in this list.
tested on: Moraxella catarrhalis; assay: Antibacterial activity against Moraxella catarrhalis ATCC 43617 by standard serial agar dilution method; type: functional
Enter your answer as a number in µg/mL; do not include the unit.

Smiles representation | Units label | Quantitative readout
CNCCCn1ccc2c1ccc[n+]2CC1=C(C(=O)[O-])N2C(=O)[C@@H](NC(=O)/C(=N\O[C@@H](C)C(=O)O)c3nc(N)sc3Cl)[C@H]2SC1 | µg/mL | 0.016
C[C@H](O/N=C(\C(=O)N[C@@H]1C(=O)N2C(C(=O)[O-])=C(C[n+]3cccc4c3ccn4CCNC(N)=O)CS[C@H]12)c1nc(N)sc1Cl)C(=O)O | µg/mL | 0.032

In plain terms, "CNCCCn1c(N)nc2c1ccc[n+]2CC1=C(C(=O)[O-])N2C(=O)[C@@H](NC(=O)/C(=N\O[C@@H](C)C(=O)O)c3nc(N)sc3Cl)[C@H]2SC1" has a documented MIC of 0.016

====

Reported MIC values are given for each entry in this list.
tested on: Staphylococcus aureus; test: Antibacterial activity against Staphylococcus aureus Smith by standard serial agar dilution method; format: functional
Enter your answer as a number in µg/mL; do not include the unit.

Smiles representation | Units label | Quantitative readout
CNCCn1ccc2c[n+](CC3=C(C(=O)[O-])N4C(=O)[C@@H](NC(=O)/C(=N\O[C@@H](C)C(=O)O)c5nc(N)sc5Cl)[C@H]4SC3)ccc21 | µg/mL | 4
C[C@H](O/N=C(\C(=O)N[C@@H]1C(=O)N2C(C(=O)[O-])=C(C[n+]3cccc4c3ccn4CC(N)=O)CS[C@H]12)c1nc(N)sc1Cl)C(=O)O | µg/mL | 2
C[C@H](N)CCn1c(N)nc2c1ccc[n+]2CC1=C(C(=O)[O-])N2C(=O)[C@@H](NC(=O)/C(=N\O[C@@H](C)C(=O)O)c3nc(N)sc3Cl)[C@H]2SC1 | µg/mL | 2

The observed MIC for "CNCCCn1ccc2c1ccc[n+]2CC1=C(C(=O)[O-])N2C(=O)[C@@H](NC(=O)/C(=N\O[C@@H](C)C(=O)O)c3nc(N)sc3Cl)[C@H]2SC1" when tested with Staphylococcus aureus stands at 2

The observed MIC for "C[C@H](O/N=C(\C(=O)N[C@@H]1C(=O)N2C(C(=O)[O-])=C(C[n+]3cccc4c3nc(N)n4[C@H]3CCNC3)CS[C@H]12)c1nc(N)sc1Cl)C(=O)O" when tested with Staphylococcus aureus stands at 4

The observed MIC for "CNCCCn1c(N)nc2c1ccc[n+]2CC1=C(C(=O)[O-])N2C(=O)[C@@H](NC(=O)/C(=N\O[C@@H](C)C(=O)O)c3nc(N)sc3Cl)[C@H]2SC1" when tested with Staphylococcus aureus stands at 2
